Numbers sourced from paper PMC7156458.

Molecular target: Aβ42 (Homo sapiens, UniProt P05067)
Sequence (P05067 672-713): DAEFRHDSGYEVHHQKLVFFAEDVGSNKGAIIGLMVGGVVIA
Test: Th-T (thioflavin-T) assay of Aβ42 aggregation
Type: biochemical
Settings: time-course reading M108; Supplementary Fig. 47 source data
Recorded metric: Th-T fluorescence, mean of three wells
Format: numeric value only, no unit, no commentary.

Query: Recall the recorded Th-T fluorescence, mean of three wells for CC(C)=CCC/C(C)=C/CC/C(C)=C/CC/C(C)=C/Cc1c(O)c(C)c(C)oc1=O with Aβ42 (Homo sapiens, UniProt P05067) and state it.
Result: 2.953

Query: Please state recorded Th-T fluorescence, mean of three wells (tested on Aβ42 (Homo sapiens, UniProt P05067)) of C=C1CCC2C(C)(CCC=C(C)C)C(=O)CCC2(C)C1Cc1c(O)c(C)c(C)oc1=O (stereo not drawn)
Result: 2.1995

Query: Notebook: pull reported Th-T fluorescence, mean of three wells for Aβ42 (Homo sapiens, UniProt P05067), entry C=C1CCC2C(C)(CCC=C(C)C)C(O)CCC2(C)C1Cc1c(O)c(C)c(C)oc1=O (stereo not drawn) [Compound 9, higginsianin B]
Result: 2.811

Query: I'm curious: which Th-T fluorescence, mean of three wells was measured for C=C1CCC2C(C)(CCC=C(C)C)C(O)CCC2(C)C1Cc1c(O)c(C)c(C)oc1=O (stereo not drawn) [Compound 4] tested on Aβ42 (Homo sapiens, UniProt P05067)?
Result: 2.803

Query: Give recorded Th-T fluorescence, mean of three wells with Aβ42 (Homo sapiens, UniProt P05067) for the following compound: C=C1CCC2C(C)(CCC=C(C)C)C(O)CCC2(C)C1Cc1c(OC)oc(C)c(C)c1=O (stereo not drawn) [Compound 15, viridoxin A hydrolysate]
Result: 3.3191

Query: Checklist item: Th-T fluorescence, mean of three wells tested on Aβ42 (Homo sapiens, UniProt P05067), entry C=C1CC[C@H]2[C@]3(C)C[C@@H](C=C(C)C)O[C@H]3CC[C@]2(C)[C@@H]1Cc1c(O)c(C)c(C)oc1=O , value?
Result: 2.675

Query: # value lookup — system Aβ42 (Homo sapiens, UniProt P05067), readout Th-T fluorescence, mean of three wells, item C=C1CCC2C(C)(CCC=C(C)C)C(O)CCC2(C)C1Cc1c(OC)oc(C)c(C(=O)OC)c1=O (stereo not drawn)
Result: 1.622

Query: Notebook: pull reported Th-T fluorescence, mean of three wells for Aβ42 (Homo sapiens, UniProt P05067), entry C=C1CCC2C3(C)CC(C=C(C)C)OC3CCC2(C)C1Cc1c(OC)oc(C)c(C)c1=O (stereo not drawn)
Result: 3.872

Query: // fetch Aβ42 (Homo sapiens, UniProt P05067) Th-T fluorescence, mean of three wells for C=C1CCC2C(C)(CCC=C(C)C)C(O)CCC2(C)C1Cc1c(OC)oc(CO)c(C)c1=O (stereo not drawn)
Result: 2.064

Query: Param readout= Th-T fluorescence, mean of three wells; system= Aβ42 (Homo sapiens, UniProt P05067); entry= C=C1CC[C@H]2[C@]3(C)C[C@@H](C=C(C)C)O[C@H]3CC[C@]2(C)[C@@H]1Cc1c(OC)oc(CO)c(C)c1=O ; returns value.
Result: 3.718

Query: Item: C=C1CC[C@@H]2[C@](C)(CC[C@H]3O[C@H](C=C(C)C)C[C@@]23C)[C@@H]1Cc1c(OC)oc(CO)c(C(=O)OC)c1=O Test system: Aβ42 (Homo sapiens, UniProt P05067) Read-out: Th-T fluorescence, mean of three wells Value: ?
Result: 1.036

Query: Record lookup: for Aβ42 (Homo sapiens, UniProt P05067), what Th-T fluorescence, mean of three wells belongs to C=C1CC[C@@H]2[C@](C)(CC[C@H]3O[C@H](C=C(C)C)C[C@@]23C)[C@@H]1Cc1c(OC)oc(CO)c(C)c1=O ?
Result: 4.2224

Query: Could you share what Th-T fluorescence, mean of three wells was measured for C=C1CCC2C(C)(CCC=C(C)C)C(O)CCC2(C)C1Cc1c(OC)oc(C)c(C)c1=O (stereo not drawn) [Compound 11] , tested on Aβ42 (Homo sapiens, UniProt P05067)?
Result: 3.473

Query: Item: C=C1CC[C@H]2[C@]3(C)C[C@H](C=C(C)C)O[C@H]3CC[C@]2(C)[C@@H]1Cc1c(OC)oc(CO)c(C)c1=O Test system: Aβ42 (Homo sapiens, UniProt P05067) Read-out: Th-T fluorescence, mean of three wells Value: ?
Result: 3.8485

Query: Requested read-out Th-T fluorescence, mean of three wells, target or system Aβ42 (Homo sapiens, UniProt P05067), entry C=C1CC[C@H]2[C@]3(C)C[C@H](C=C(C)C)O[C@H]3CC[C@]2(C)[C@@H]1Cc1c(OC)oc(C)c(C)c1=O
Result: 3.958

Query: Please state recorded Th-T fluorescence, mean of three wells (tested on Aβ42 (Homo sapiens, UniProt P05067)) of C=C1CCC2C(C)(CC(=O)C=C(C)C)C(O)CCC2(C)C1Cc1c(OC)oc(CO)c(C)c1=O (stereo not drawn)
Result: 3.642

Query: Param readout= Th-T fluorescence, mean of three wells; system= Aβ42 (Homo sapiens, UniProt P05067); entry= C=C1CCC2C(C)(CCC=C(C)C)C(O)CCC2(C)C1Cc1c(OC)oc(CO)c(C(=O)OC)c1=O (stereo not drawn) ; returns value.
Result: 1.038

Query: Reported Th-T fluorescence, mean of three wells for Aβ42 (Homo sapiens, UniProt P05067), given C=C1CC[C@@H]2[C@](C)(CC[C@H]3O[C@H](C=C(C)C)C[C@@]23C)[C@@H]1Cc1c(O)c(C)c(C)oc1=O ?
Result: 3.028

Query: Query Th-T fluorescence, mean of three wells on Aβ42 (Homo sapiens, UniProt P05067) for C=C1CC[C@H]2[C@]3(C)C[C@H](C=C(C)C)O[C@H]3CC[C@]2(C)[C@@H]1Cc1c(O)c(C)c(C)oc1=O
Result: 3.063

Query: # get_value(readout= Th-T fluorescence, mean of three wells, system= Aβ42 (Homo sapiens, UniProt P05067)) for C=C1CCC2C(C)(CC(=O)C=C(C)C)C(O)CCC2(C)C1Cc1c(OC)oc(C)c(C)c1=O (stereo not drawn)
Result: 3.6

Query: Form field: Th-T fluorescence, mean of three wells recorded for C=C1CCC2C(C)(CC(=O)C=C(C)C)C(O)CCC2(C)C1Cc1c(O)c(C)c(C)oc1=O (stereo not drawn) with Aβ42 (Homo sapiens, UniProt P05067) (enter value)
Result: 3.51
